Where these numbers come from: paper PMC8690038

Target: CpAK mutant A380C (Corynebacterium glutamicum, UniProt P26512, A362C)
Construct: His-tag (pET-28a) (N)
Sequence (P26512 whole entry A362C): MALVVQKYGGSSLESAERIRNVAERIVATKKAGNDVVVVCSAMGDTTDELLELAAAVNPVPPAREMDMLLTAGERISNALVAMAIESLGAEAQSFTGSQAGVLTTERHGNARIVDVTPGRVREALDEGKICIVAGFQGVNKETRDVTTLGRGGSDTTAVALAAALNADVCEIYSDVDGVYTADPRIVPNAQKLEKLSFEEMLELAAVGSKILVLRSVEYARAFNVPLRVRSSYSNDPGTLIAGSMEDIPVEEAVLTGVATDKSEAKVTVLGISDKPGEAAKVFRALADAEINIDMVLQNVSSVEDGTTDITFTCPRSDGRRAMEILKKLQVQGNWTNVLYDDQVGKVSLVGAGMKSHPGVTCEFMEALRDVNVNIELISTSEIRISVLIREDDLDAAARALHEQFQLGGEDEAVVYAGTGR
Test: Microscale thermophoresis (MST), A380C
Observation type: Kd (mM)

- NCCCC[C@H](N)C(=O)O: 5.32

---

Target: WT (wild-type CpAK)
Assay: Microscale thermophoresis (MST), WT
Conditions: 28 °C
Observation type: Kd (µM)

* NCCCC[C@H](N)C(=O)O | 1320

---

Biological target: WT (Corynebacterium glutamicum)
Construct: gene lysC; recombinant from pET-28a-AK, His Trap purified, about 48 kDa
Sequence (P26512 whole entry): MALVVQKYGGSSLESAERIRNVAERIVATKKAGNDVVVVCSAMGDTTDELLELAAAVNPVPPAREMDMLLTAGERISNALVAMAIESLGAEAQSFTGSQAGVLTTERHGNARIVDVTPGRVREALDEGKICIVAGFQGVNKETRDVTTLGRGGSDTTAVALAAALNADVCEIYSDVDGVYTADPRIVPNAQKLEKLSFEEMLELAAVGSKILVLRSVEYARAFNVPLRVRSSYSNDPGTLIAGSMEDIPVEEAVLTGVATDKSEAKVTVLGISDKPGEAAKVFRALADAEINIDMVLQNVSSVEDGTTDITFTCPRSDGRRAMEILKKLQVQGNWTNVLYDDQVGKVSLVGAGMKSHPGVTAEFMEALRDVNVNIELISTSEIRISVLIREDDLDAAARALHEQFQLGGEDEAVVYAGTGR
Assay: Microscale thermophoresis of NT-647-NHS-labelled AK (40 nM) with diluted Asp in the enzyme activity measurement system, 28 °C, Monolith NT.115, no Lys added.
Assay type: binding
Conditions: read-out: K d (mM) Asp
Observation type: Kd (mM)

• N[C@@H](CC(=O)O)C(=O)O = 655

---

Molecular target: CpAK mutant T379N/A380C (Corynebacterium glutamicum, UniProt P26512, A362C/T361N)
Construct: His-tag (pET-28a) (N); made in house; host or cells: E. coli BL21
Sequence (P26512 whole entry T361N/A362C): as the sequence (P26512 whole entry A362C) above, with T361N counted along it
Test: Microscale thermophoresis (MST), T379N/A380C
Format: binding, Corynebacterium pekinense
pKd: −log10 of the molar value.
Observation type: pKd

* NCCCC[C@H](N)C(=O)O [Lys, lysine] | 2.03
